Listed next: entries and their corresponding conc. for 2-fold expression (nM) mean.
# System: B16/BL6 cells
# PROTOCOL NOTES: MHC class-I molecule expression promoting activity
# Assay type: cell-based, mouse
# TEST SETTINGS: mean of a plurality of assays; 72 hours
Non-standard residues stand in square brackets, D forms with d. Residues, ends and D or L forms follow the SMILES beside them. *: point of attachment. Asu = N[C@@H](CCCCCC(=O)O)C(=O)O; Aib = CC(C)(N)C(=O)O; NHOH = ON*
Give just the numeric value; nM need not be written.

The examples below pair each entry with its known result.
>>> measurement("O=C(NO)c1ccccc1 [benzohydroxamic acid, reference compound]")
35800
>>> measurement("CC1(C)NC(=O)[C@H](CCCCCC(=O)NO)NC(=O)[C@H]2CCCN2C(=O)[C@H](Cc2ccccc2)NC1=O [HDA-15, cyclo(-Asu(NHOH)-Aib-Phe-D-Pro-)] (cyclo([Aib]F[dP][Asu](NHOH)))")
33.2

Read the next record carefully.
For reference, reported conc. for 2-fold expression (nM) mean for O=C(CCCCCc1ccccc1)NO [Ph-(CH2)5-CONHOH, reference compound] stands at 11400
